Reference for the values: patent US20230391752A1

CC50 at 6 days values for the compounds below.
- ASSAY_OVERVIEW: Cytotoxicity (MTT) in HepG2.2.15 cells
- Assay type: cell-based
- ASSAY_CONDITIONS: human, 6 days treatment, read-out: HepG2.1.15 cytotoxicity (CC50)

Some compounds with recorded CC50 at 6 days:
# ITEM_SMILES, CC50 at 6 days
measured = [
    ("Cc1cc(NC(=O)[C@H]2CCN(C(=O)c3ccc(-c4c(C)cn[nH]c4=O)[nH]3)[C@H]2C)ccc1F", "> 25 µM"),
    ("Cc1cc2[nH]ncc2cc1-c1ccc(C(=O)N2CC[C@H](C(=O)Nc3ccc(F)c(C#N)c3)C2)[nH]1", "10 to 25 µM"),
]

Tell me the measured CC50 at 6 days of Cc1cc(NC(=O)[C@H]2CCN(C(=O)c3ccc(-c4c(C)ncnc4C)[nH]3)[C@H]2C)ccc1F , please.
10 to 25 µM

Tell me the measured CC50 at 6 days of Cc1cc2[nH]ncc2cc1-c1ccc(C(=O)N2CC[C@H](C(=O)Nc3cc(F)c(F)c(F)c3)C2)[nH]1 , please.
10 to 25 µM

Tell me the measured CC50 at 6 days of Cc1ncnc(C)c1-c1ccc(C(=O)N2CC[C@H](C(=O)Nc3cc(F)c(F)c(F)c3)C2)[nH]1 , please.
10 to 25 µM

* * *

activity at 1 µM values for the compounds below.
- Test system: HBV
- ASSAY_OVERVIEW: In vitro anti-HBV activity in HepG2.2.15 cell line (intracellular HBV DNA by qPCR at 1 μM)
- Format: cell-based
- ASSAY_CONDITIONS: Hepatitis B virus, 144 h; HepG2.2.15 cells, 1 μM compound, 6 days, intracellular HBV DNA as percentage compared to vehicle control (0.5% DMSO)
- Text: The stable transfected HBV cell line, called HepG2.2.15 cells was a valuable model with high reproducibility and commonly used for drug screening. […]

Test system HBV; read-out activity at 1 µM; what value for Cc1ncccc1-c1ccc(C(=O)N2CC[C@H](C(=O)Nc3ccc(F)c(C#N)c3)C2)[nH]1 ?
45 to 60%

Test system HBV; read-out activity at 1 µM; what value for O=C(Nc1cc(F)c(F)c(F)c1)[C@H]1CCN(C(=O)c2ccc(-c3cncnc3)[nH]2)C1 ?
< 45%

Test system HBV; read-out activity at 1 µM; what value for Cc1ccc(C(=O)N2CC[C@H](C(=O)Nc3cc(F)c(F)c(F)c3)C2)s1 ?
70 to 80%

Test system HBV; read-out activity at 1 µM; what value for Cc1ccc(C(=O)N2CC[C@H](C(=O)Nc3cc(F)c(F)c(F)c3)C2)[nH]1 ?
45 to 60%

Test system HBV; read-out activity at 1 µM; what value for O=C(Nc1cc(F)c(F)c(F)c1)[C@H]1CCN(C(=O)c2ccc(C3CC3)[nH]2)C1 ?
45 to 60%

Test system HBV; read-out activity at 1 µM; what value for Cc1c(-c2ccc(C(=O)N3CC[C@H](C(=O)Nc4cc(F)c(F)c(F)c4)C3)[nH]2)ccc2[nH]ncc12 ?
< 45%

Test system HBV; read-out activity at 1 µM; what value for Cn1ccnc1-c1ccc(C(=O)N2CC[C@H](C(=O)Nc3cc(F)c(F)c(F)c3)C2)[nH]1 ?
< 45%

Test system HBV; read-out activity at 1 µM; what value for C[C@H]1[C@@H](C(=O)Nc2ccc(F)c(F)c2)CCN1C(=O)c1ccc(-c2ccnnc2)[nH]1 ?
< 45%
